Readings of vesicle binding response for the listed compounds
Test: reduced mouse 2C T cell binding to pMHC/ICAM-1 vesicles – MLPCN validation set, flow cytometry, LFA-1/ICAM-1 modulator project, pilot screen (AID 2523);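 also: mean PE anti-B7-1 fluorescence of CD8+ cells relative to row control; 100% = QL9-loaded vesicles with DMSO vehicle in the same plate row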
Conditions: 2C mouse CD8+ T cells, at 7 µM, stronger effect = lower value
measurement_type: vesicle binding response (%)

• CC(=O)NC(Cc1c[nH]c2ccccc12)C(=O)N/N=C/c1ccccc1 (configuration not stated) = 200
• CC(=O)C1=C(O)C(=O)OC1c1ccc(C)cc1 (configuration not stated) = 147
• O=C(O)COc1ccc2occ(C(=O)c3ccccc3)c2c1 = 180
• CN(C)C(=O)CCCCCCCCC(=O)N(C)C = 194
• NC(=O)c1cnccn1 = 240
• O=C1C(=O)c2ccccc2C(O)=C1c1ccccc1F = 15.9
• C/C=C(/C(=C/C)c1ccc(O)cc1)c1ccc(O)cc1 = 170
• CC(C)(C)OC(=O)N1CC(O)CC1C(=O)OCC(=O)c1ccc(Cl)cc1 (configuration not stated) = 222
• CC(C)CCn1c(N2CCc3ccccc3C2)nc2c1c(=O)[nH]c(=O)n2C = 184
• O=C(COc1ccc2ccc(=O)oc2c1)c1ccccc1 = 132
• CCCCCC(O)c1cccc(OCc2ccc3ccccc3n2)c1 (configuration not stated) = 227
• COc1ccc2[nH]c3c(c2c1)CCNC3C1CC=C(C)CC1 (configuration not stated) = 519

###

Assay: TOR pathway RTG branch CIT2 reporter changes – S. cerevisiae, GFP fusion, multiplex flow cytometry, primary screen (AID 1870);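 also: barcoded CIT2-GFP strain pooled with four other GFP strains with rapamycin as positive control; median GFP fluorescence per well over plate mean of DMSO wells so 100% = DMSO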
Conditions: S. cerevisiae CIT2-GFP expression, 3 h, at 10 µM, stronger effect = higher value
measurement_type: percent response of DMSO control (%)

• COc1ccc(C(=O)COc2ccc(F)cc2)c(O)c1 = 106
• CC(C)c1ccc(OCc2ccc(C(=O)O)o2)cc1 = 109
• COc1ccc(N2CCN(C(=S)NCc3ccccc3)CC2)cc1 = 101
• COc1ccc(C2=C(CN(C)C)C(c3ccccc3)c3ccccc3O2)cc1 (configuration not stated) = 96.6
• Cc1nc(N)sc1C(=O)N/N=C/c1ccco1 = 109
• COc1ccc(C2C3=C(OC(C)=O)c4ccccc4C3=Nc3c2c(=O)n(C)c(=O)n3C)cc1 (configuration not stated) = 106
• Cc1ccc(OCc2nc(-c3cccnc3)no2)cc1C = 99.2
• CC(=O)NC(NC(=S)N1CCCCCC1)C(Cl)(Cl)Cl (configuration not stated) = 98.9
• O=C(CN1C(=O)C2CCc3[nH]c4ccccc4c3C2C1=O)N1CCCC1 (configuration not stated) = 106
• O=C(CN1CC[n+]2c(-c3cccs3)csc21)c1ccc(Br)cc1 = 108
• CCOC(=O)c1cc2c(nc1N)CC(C)(CC)OC2 (configuration not stated) = 91
• CCOC(=O)Cn1c(C)cc(=O)c2ccccc21 = 91

###

GFP response, % of DMSO overview
Experiment: TOR pathway CIT2 reporter hit retest – S. cerevisiae, GFP fusion, cherry picks, mother/daughter gates, confirmation (AID 2274)
Details: S. cerevisiae CIT2-GFP strain, flow cytometry, 3 h; measured here: mother cell gate; at 10 µM; stronger effect = higher value
measurement_type: GFP response, % of DMSO (%)

* CC(=O)[C@H]1CC[C@H]2[C@@H]3CCC4=CC(=O)CC[C@]4(C)[C@H]3CC[C@]12C | 98
* CS(=O)(=O)Nc1cccc(C(=O)CC2(O)C(=O)Nc3ccc(Br)cc32)c1 (configuration not stated) | 90.7
* Oc1ccc2ccccc2c1/C=N/Nc1nnc(-c2ncc[nH]2)c2ccccc12 | 205
* O=C(O)CCNC(=O)c1ccccc1 | 98
* CC(=O)c1ccc(CCCCCCCCCC(=O)O)s1 | 101
* O=C(C#Cc1cccc([N+](=O)[O-])c1)c1ccccc1 | 91
* O=C(C#Cc1ccccc1)c1cccc([N+](=O)[O-])c1 | 97.3
* O=c1cc(-c2ccccc2)oc2cc(OCc3ccccc3)cc(O)c12 | 103
* CN1CCN2c3ccccc3Cc3ccccc3C2C1 (configuration not stated) | 101
* Cn1c(=O)c(C(=O)NCCO)c(O)c2ccccc21 | 97.3
* CC(=O)Nc1ccccc1O | 113
* CCOC(=O)C(Cc1cc(C(C)=O)ccc1OC(C)C)C(=O)OCC | 96.8
